- tested-target: MYLK2 (human)
- procedure-summary: radiometric filter-binding kinase assay, Kinase HotSpot
- reported-conditions: compound 0.5 µM; ATP 10 µM
quantity: residual activity (%)
Express the result in % but write the number alone.

See these solved cases before continuing.
c1ccc(-c2n[nH]c3c2oc2ccccc23)cc1
66.6
O=c1cc(N2CCOCC2)oc2c1ccc1ccccc12
97.7

Query: For the molecule `Nc1ccc2ncnc(NCCc3ccc(Oc4ccccc4)cc3)c2c1` , what residual activity is on record?
Reply: 97.6

Query: For the molecule `COc1cc2ncnc(Nc3cccc(Cl)c3)c2cc1OC` , what residual activity is on record?
Reply: 90.1

Query: For the molecule `CCN(CC)CCNC(=O)c1c(C)[nH]c(/C=C2\C(=O)Nc3ccc(Cl)cc32)c1C` , what residual activity is on record?
Reply: 10

Query: For the molecule `Cc1[nH]c(/C=C2\C(=O)Nc3ccc(S(=O)(=O)N(C)c4cccc(Cl)c4)cc32)c(C)c1C(=O)N1CCN(C)CC1` , what residual activity is on record?
Reply: 73.8

Query: For the molecule `Oc1cccc(-c2nc(N3CCOCC3)c3oc4ncccc4c3n2)c1` , what residual activity is on record?
Reply: 99

Query: For the molecule `CCOC(=O)c1c(C)[nH]c(/C=C2\C(=O)Nc3ccccc32)c1C` , what residual activity is on record?
Reply: 74.7

Query: For the molecule `Nc1ncnc2c1c(-c1ccc(Oc3ccccc3)cc1)cn2C1CCCC1` , what residual activity is on record?
Reply: 92.4
